System: Amaranthus retoflexus (AMARE)
experimental-details: Post-emergence efficacy (glasshouse)
Type: in vivo
test-settings: 62.5 g/ha, evaluated after 13 days
value-kind: percentage damage caused to the plant, AMARE (five point scale)

Look over these answered cases.
C#CCn1c(=O)c(-c2c(F)ccc(Cl)c2OCc2ccccc2)c(O)c2scnc21 : 5 (5=80-100%)
Cn1c(=O)c(-c2c(C(F)(F)F)ccc(Cl)c2OCc2ccccc2)c(O)c2scnc21 : 4 (4=60-79%)
Cn1c(=O)c(-c2c(Cl)ccc(Cl)c2OCc2ccccc2)c(O)c2scnc21 : 4 (4=60-79%)

Request: Entry under review: `C#CCn1c(=O)c(-c2c(Cl)ccc(Cl)c2OCc2ccccc2)c(O)c2scnc21` . Reported percentage damage caused to the plant, AMARE (five point scale)?
Response: 5 (5=80-100%)
